- TARGET DESC: LasR (Pseudomonas aeruginosa, UniProt P25084)
- Construct: expressed in transfected cells; host or cells: E. coli DH5α (pJN105L pSC11), arabinose-induced
- Sequence (P25084 whole entry): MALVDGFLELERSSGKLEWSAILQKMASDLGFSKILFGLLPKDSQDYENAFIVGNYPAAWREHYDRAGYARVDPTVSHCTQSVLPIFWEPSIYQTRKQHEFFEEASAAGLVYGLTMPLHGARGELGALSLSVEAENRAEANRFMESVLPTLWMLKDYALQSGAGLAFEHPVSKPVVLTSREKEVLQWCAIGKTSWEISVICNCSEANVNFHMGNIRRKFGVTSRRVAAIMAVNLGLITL
- ASSAY COMMENT: cell-based
- Format: cell-based
- ASSAY SETUP: read-out: E. coli-LasR Inhibition [%], 5 μM synthetic ligand against 7.5 nM OdDHL; E. coli DH5α (pJN105L pSC11); normalized to OdDHL
Output 1 (yes) for inhibition at 5 µM not less than 20%; output 0 (no) otherwise.

COMPOUND: O=C(Cc1ccc([N+](=O)[O-])cc1)NC1CCOC1=O (centres unmarked)
CLASS NAME: 1 (yes)

COMPOUND: CCCC(=O)CC(=O)N[C@H]1CCOC1=O
CLASS NAME: 0 (no)

COMPOUND: CCCCCCCCCC(=O)NC1CCOC1=O (centres unmarked)
CLASS NAME: 1 (yes)

COMPOUND: CCCCCCCCCCCC(=O)N[C@H]1CCOC1=O
CLASS NAME: 0 (no)

COMPOUND: CCCCCCCC(=O)N[C@H]1CCOC1=O
CLASS NAME: 1 (yes)

Threshold query (inhibition at 5 µM >= 20%) on `O=C(Cc1ccc(C(F)(F)F)cc1)N[C@H]1CCOC1=O`
1 (yes)

Threshold query (inhibition at 5 µM >= 20%) on CCCCCC(=O)CC(=O)N[C@H]1CCOC1=O [compound 1, N-(3-oxo-octanoyl)-L-homoserine lactone, reference compound]
1 (yes)
